test system: SK-OV-3 ovarian; assay: NCI-60 one-dose screen, 48 h (100 = growth as untreated, 0 = no growth, -100 = all killed); settings: 10 µM unless noted
This is part of a sample that, as a whole, favours compounds with a hit. Of some 83,000 tested, about 20% had one in any assay.
Labelling: growth reported below 70% becomes TRUE; at or above becomes FALSE.

compound	classification
CCC(C)(C)c1ccc(Nc2ccc(Nc3ccc(C(C)(C)CC)cc3)cc2)cc1	FALSE
O=C(Nc1ccc(Oc2cccc(Cl)c2)c(Cl)c1)c1cccnn1	FALSE
O=C(Nc1cc(Cl)cc(Cl)c1)Oc1c(Cl)c(Cl)c(Cl)c(Cl)c1Cl	FALSE
CCN(CC)C(=O)CC1=C(C)/C(=C/c2[nH]c(-c3ccc[nH]3)cc2OC)N=C1C	TRUE
COc1cc2c(c(OC)c1OC)CCC(c1cccc(C(=O)Nc3ccc(Br)cc3)c1)O2 (centres undefined)	FALSE
CCN1CCN(CCNc2nccc(-c3c(-c4ccc(F)c(O)c4)nc4occn34)n2)S1(=O)=O	TRUE
O=C(O)CCCCCCCCCCN1C(=O)/C(=C2/C(=O)N(CC(=O)O)c3ccc(Br)cc32)SC1=S	FALSE
C/C(=C(\c1ccc(OCCN2CCCCCC2)cc1)c1ccc(OC(=O)c2ccccc2)cc1)c1ccc(Cl)cc1	FALSE
COc1ccc(C2CC(n3ccnc3)c3cc(OC)c(OC)c(OC)c32)cc1O (centres undefined)	FALSE
CCN(CC)CCOc1ccc2ccc(=O)oc2c1	FALSE
N#Cc1ccccc1-c1ccc(CN2C(=O)S/C(=C\c3ccc(Br)cc3)C2=O)cc1	FALSE
O=C(/C=C/C12c3ccccc3C(c3ccccc31)C1C(=O)NC(=O)C12)c1ccc(Cl)cc1Cl (centres undefined)	TRUE
C=C1SC(=Nc2ccccc2Cl)N(C(=O)c2sc3ccccc3c2Cl)C1(C)C	TRUE
COc1cc2c3c(c4c5ccccc5[nH]c4c2c(OC)c1OC)C(=O)N(CCN1CCCCC1)C3=O	TRUE
c1ccc(-c2ccc3c(c2)C2(CCNCC2)CN3)cc1	FALSE
Cc1ccc(O)c(NC(=O)c2cccc(Nc3ccnc(C(F)(F)F)c3)c2)c1	FALSE
COC1C(O)CC(OC2CC(OC3CC(O[C@@H]4C(=O)c5c(cc6cc(OC7CC(OC8CC(O)C(O)C(C)O8)C(O)C(C)O7)c(C)c(O)c6c5O)CC4[C@H](OC)C(=O)C(C)=O)OC(C)C3O)OC(C)C2O)OC1C (some centres undefined)	TRUE
O=C1/C(=C/c2c[nH]c(=O)[nH]c2=O)SC(=S)N1Cc1ccccc1	FALSE
O=c1cc(C(F)(F)F)c2cc(-c3cc4ccccc4c(=O)o3)c(O)cc2o1	FALSE

* * *

Overview of recorded growth for various compounds
system: MDA-MB-231 breast; experiment: NCI-60 one-dose screen, 48 h (100 = growth as untreated, 0 = no growth, -100 = all killed); conditions: 10 µM unless noted
About 83,000 compounds went through this panel and 20% of them were active in at least one assay; those are over-represented in the sample as a whole.

compound	units-label	growth
CCOC(=O)C#Cc1c(C(=O)OCC)nnn1[C@@H]1O[C@H](COC)[C@@H](OC)[C@H]1OC	%	107
Ic1ccc(Nc2nc3nonc3nc2Nc2ccc(I)cc2)cc1	%	-5.93
O=c1cc(CNc2cc(F)cc(F)c2)c2ccc(I)cc2[nH]1	%	60.6
CC[C@@H](C(=O)[C@@H](C)[C@@H](O)[C@H](C)[C@@H]1O[C@@H]([C@@H](CC)C(=O)ONC(=O)c2ccccc2O)CC[C@@H]1C)C1O[C@]2(C=CC(=O)[C@]3(CC[C@@](C)([C@H]4CC[C@](O)(CC)[C@H](C)O4)O3)O2)[C@H](C)C[C@@H]1C (some centres not stated)	%	50.9
Cc1ccc(NC(=O)c2cc3ccccc3cc2O)c(C)c1	%	97.8
O=C(/C=C/C12c3ccccc3C(c3ccccc31)C1C(=O)NC(=O)C12)c1ccc(I)cc1 (configuration not stated)	%	64
COC(=O)[C@@]12CC=C(C)[C@]3(C[C@H](c4ccoc4)OC3=O)[C@H]1C=C[C@@H](O)[C@@]2(O)C(=O)OC	%	110
Cc1ccc(S(=O)(=O)c2nc(-c3ccccc3)oc2SCC(N)=O)cc1	%	104
C=CCN=c1sc(-c2ccc3ccccc3c2)cn1NC(=O)c1cc2ccc1CCc1ccc(cc1)CC2	%	92.9
COc1ccc(N/N=C/c2cn(-c3ccc(C(=O)O)cc3)nc2-c2cc3ccccc3oc2=O)cc1	%	77.9
N#Cc1c(-c2ccccc2)nc2c(c(-c3ccccc3)nn2-c2ccccc2)c1-c1ccc(N2CCCCC2)cc1	%	97.7
COc1ccc(-c2cc(-c3cn(-c4cccc(Cl)c4)nc3-c3ccc(OC)cc3)on2)cc1	%	80.9
CCOC(=O)/C=C1\S/C(=N\Nc2cc(=O)[nH]c3ccc(Br)cc23)N(c2ccccc2)C1=O	%	86.2
CS(=O)(=O)Nc1cc(-c2ccc3ncnc(Nc4ccc5c(cnn5Cc5ccncc5)c4)c3c2)cnc1Cl	%	43.4
COc1ccc(N=C2NN=C(c3c[nH]c4ccccc34)CS2)cc1OC	%	55.4
COc1ccc(-c2nc3c(c(-c4ccc(Cl)cc4)nn3-c3ccccc3)c(-c3ccccc3)c2C#N)cc1	%	111
O=C(NCCCCCCNC(=O)OCc1ccc2c(Cl)cc(Cl)c(O)c2n1)OCc1ccc2c(Cl)cc(Cl)c(O)c2n1	%	-92.7
Clc1ccc(-c2cc(-c3ccccc3)nc(N3CCN(CCCNc4ccnc5cc(Cl)ccc45)CC3)n2)cc1	%	-51.7
N=C(N)c1ccc(OCCSCCOc2ccc(C(=N)N)cc2)cc1	%	82.1
CCCCCc1ccc(S(=O)(=O)Nc2ccc3nc(N)oc3c2)cc1	%	64.3
CCOC(=O)C1=C(CC(O)c2ccc(OC)cc2OC)NC(=O)NC1c1ccccc1 (configuration not stated)	%	99.4
CC1(C)N=C(N)N=C(N)N1c1ccc(S(=O)(=O)Nc2nccs2)cc1	%	103
COc1ccc(C/C(C)=C(\c2ccc(O)cc2)c2ccc(OCCN3CCCCC3)cc2)cc1	%	104
O=C(/C=C/c1ccco1)Nc1ncc(Cc2cc(Cl)ccc2Cl)s1	%	47.4
COC12C=C/C(=C(/C(=O)OCc3csc(SC)n3)C(=O)CCCCCCCCC3(OC)C=C/C(=C(/C(=O)OCc4cnc(SC)s4)C(=O)CCCCCCCC1)O3)O2 (configuration not stated)	%	19.1
CSc1ccc(N2C(=N)C(=S)N(c3ccc(C)cc3)C2=O)cc1	%	101
Nc1ccc(-c2ccncc2)cc1NC(=O)N1CCCC1	%	120
CCCn1c(=S)sc2c(NNC(C)=O)nc(C)nc21	%	103
C=C1C(=O)O[C@H]2[C@H]1CC/C(CNC(=O)Cc1c[nH]c3ccccc13)=C\CC[C@@]1(C)O[C@@H]21	%	16.1
Nc1c(Br)cc2c(c1Br)Cc1cc([N+](=O)[O-])ccc1-2	%	90.6
O=C(/C=C/c1ccccc1Cl)c1cccc(OCCCCOc2cccc(C(=O)/C=C/c3ccccc3Cl)c2)c1	%	102
O=CCCCOCc1ccccc1	%	101
Fc1cccc(CNc2c3ccccc3nc3ccccc23)c1	%	30.6
CC(=O)c1sc(-c2ccc(F)cc2)cc1O	%	127
C=C1C(=O)O[C@H]2[C@H]1CC/C(COC(=O)NCc1ccc(Cn3c(=O)sn(-c4ccc(I)cc4)c3=O)cc1)=C\CC[C@@]1(C)O[C@@H]21	%	73.5
COc1cc(/C=C/C(=O)N2CCN(C(=O)c3cc(OC)c(OC)c(OC)c3)CC2)ccc1OCCCOc1cc2c(cc1OC)C(=O)N1CCC[C@H]1C=N2	%	9.01
CNCC[C@H](Oc1cccc2ccccc12)c1cccs1	%	7.37

* * *

tested on: NCI-H460 lung; assay: NCI-60 one-dose screen, 48 h (100 = growth as untreated, 0 = no growth, -100 = all killed); conditions: 10 µM unless noted
Compounds without any hit were thinned out: in the full panel of roughly 83,000, 20% have a hit.
So basically: is growth under 40%? Then Yes. Not under? Then No.

In [3]: df
Out[3]:
                                   compound  classification
0  CN(C)c1ccc(/C=N\NC(=O)c2ccc3nc(-c4ccc(Cl)cc4)[nH]c3c2)cc1             Yes
1  c1ccc(Cn2cc3c(c2-c2ccccc2)CCc2cnoc2-3)cc1              No
2  CN(C)C1CN(C(=O)c2cc(-c3ccc4ncnc(N5CCc6cc(F)c(Cl)cc65)c4c3)cnc2N)C1             Yes
3  C[C@H]1[C@H](C)CC[C@]2(C(=O)NCCNCCN)CC[C@]3(C)C(=CC[C@@H]4[C@@]5(C)CCC(=O)C(C)(C)[C@@H]5CC[C@]43C)[C@H]12             Yes
4  CN(C)CCCNC(=O)c1cncnc1Nc1ccc2c(ccn2Cc2cccc(F)c2)c1              No
5  COc1cc2c(c(OC)c1OC)C(=O)CC(c1cccc(C(=O)Nc3ccccc3Br)c1)O2 (centres undefined)              No
6  COc1ccc(Nc2ncc(C#N)c(NCCCNC(=O)C3CCC3)n2)cc1              No
7  N#Cc1c(-c2cccc(Cl)c2)cc(-c2cccnc2)[nH]c1=O              No
8  C#CCOc1cccc(Nc2ncnc3cc(NC(=O)CCl)ccc23)c1             Yes
